src = patent US20180185510A1

Molecular target: T1, B7H3 on B7H3-positive human tumour cells (A498, MCF-7, Caki-2, 786-0) (human, UniProt Q5ZPR3 29-534)
T1 sequence (looked up): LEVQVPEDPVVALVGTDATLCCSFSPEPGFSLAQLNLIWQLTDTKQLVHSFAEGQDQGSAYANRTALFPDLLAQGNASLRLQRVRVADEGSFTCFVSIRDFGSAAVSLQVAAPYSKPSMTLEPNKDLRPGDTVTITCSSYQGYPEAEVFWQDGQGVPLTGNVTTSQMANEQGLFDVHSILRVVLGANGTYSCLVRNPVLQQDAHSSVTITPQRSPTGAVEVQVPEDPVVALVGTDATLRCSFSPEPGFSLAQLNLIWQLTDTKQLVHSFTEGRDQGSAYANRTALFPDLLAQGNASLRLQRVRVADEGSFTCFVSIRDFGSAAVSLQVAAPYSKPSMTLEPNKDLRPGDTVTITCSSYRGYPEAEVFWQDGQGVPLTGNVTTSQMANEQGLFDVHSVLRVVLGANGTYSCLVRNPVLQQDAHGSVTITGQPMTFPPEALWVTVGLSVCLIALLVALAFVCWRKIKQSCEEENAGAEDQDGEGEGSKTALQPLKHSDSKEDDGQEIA
Assay: cell-based or functional assay
readout kind: IC50 [M] CTG, A498 cells (B7H3-positive) (M)
Give just the numeric value; M need not be written.

Find the measured IC50 [M] CTG, A498 cells (B7H3-positive) of Example 194L2: anti-B7H3 AK1B (TPP-5706) coupled with Intermediate F194 (antibody, human IgG1, kappa, V domains shown, KSP inhibitor-linker (Intermediate F194) on lysine residues, sites not given; drug/mAb ratio 2.9) VH: QVQLQQPGAELVKPGASVKMSCKASGYTFTIYNVHWIKQTPGQGLEWMGTIFPGNGDTSYNQKFKDKATLTTDKSSKTAYMQLNSLTSEDSAVYYCARWDDGNVGFAHWGQGTLVTVSA VL: DIQMTQSPASLSASVGETVTITCRASENINNYLTWFQQKQGKSPQLLVYHAKTLAEGVPSRFSGSGSGTQFSLKINSLQPEDFGSYYCQHHYGTPPTFGGGTKLEIKR and report it.
3.57e-10
